system under test: α2A-AR (Homo sapiens)
Construct: expressed in transfected cells; stably expressing α2A-AR/Gα16
Sequence (P08913 1-465): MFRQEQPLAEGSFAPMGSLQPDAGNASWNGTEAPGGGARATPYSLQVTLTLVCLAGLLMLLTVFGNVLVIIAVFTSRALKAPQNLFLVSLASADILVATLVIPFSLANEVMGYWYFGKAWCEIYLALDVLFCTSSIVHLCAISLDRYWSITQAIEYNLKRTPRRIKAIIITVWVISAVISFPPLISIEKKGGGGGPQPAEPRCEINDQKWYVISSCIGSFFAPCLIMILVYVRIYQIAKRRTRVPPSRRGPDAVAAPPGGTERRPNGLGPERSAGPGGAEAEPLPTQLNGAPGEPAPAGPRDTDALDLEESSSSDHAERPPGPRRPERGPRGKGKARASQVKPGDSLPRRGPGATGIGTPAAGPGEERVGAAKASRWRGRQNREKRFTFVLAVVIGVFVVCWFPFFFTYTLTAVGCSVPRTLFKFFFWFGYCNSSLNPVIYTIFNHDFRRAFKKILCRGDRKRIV
assay info: α2A-AR antagonist assay (calcium flux, Fluo-4, FlexStation II)
Type: cell-based
recorded conditions: antagonistic activity against agonist UK14304 in cells stably expressing α2A-AR/Ga16
metric: IC50

{"compound": "CN(C)C(=O)c1ccc(Cc2noc([C@@H]3[C@H]4C[C@H]5c6[nH]c7ccccc7c6CCN5C[C@@H]4CC[C@@H]3O)n2)cc1 [Compound C35]", "metric": "IC50", "reading": "0.1 to 0.3 µM"}
{"compound": "COc1ccccc1Cc1noc([C@@H]2[C@H]3C[C@H]4c5[nH]c6ccccc6c5CCN4C[C@@H]3CC[C@@H]2O)n1 [Compound C4]", "metric": "IC50", "reading": "0.5 to 2 µM"}
{"compound": "O[C@H]1CC[C@H]2CN3CCc4c([nH]c5ccccc45)[C@@H]3C[C@@H]2[C@H]1c1nc(Cc2cccc(Cl)c2)no1 [Compound C11]", "metric": "IC50", "reading": "0.5 to 2 µM"}

----------
IC50 listing for selected molecules.
system under test: α2A-AR (Homo sapiens)
Construct: expressed in transfected cells; stably expressing α2A-AR/Gα16
assay info: α2A-AR antagonist assay (calcium flux, Fluo-4, FlexStation II)
Format: cell-based
recorded conditions: antagonistic activity against agonist UK14304 in cells stably expressing α2A-AR/Ga16
metric: IC50

{"molecule": "O[C@H]1CC[C@H]2CN3CCc4c([nH]c5ccccc45)[C@@H]3C[C@@H]2[C@H]1c1nc(Cc2cccc(F)c2)no1 [Compound C8]", "reading": "0.3 to 0.5 µM"}
{"molecule": "O[C@H]1CC[C@H]2CN3CCc4c([nH]c5ccccc45)[C@@H]3C[C@@H]2[C@H]1c1nc(Cc2cccc(OC(F)(F)F)c2)no1 [Compound C32]", "reading": "< 0.1 µM"}
{"molecule": "O[C@H]1CC[C@H]2CN3CCc4c([nH]c5ccccc45)[C@@H]3C[C@@H]2[C@H]1c1nc(Cc2cccc(Br)c2)no1 [Compound C15]", "reading": "< 0.1 µM"}
{"molecule": "N#Cc1cccc(Cc2noc([C@@H]3[C@H]4C[C@H]5c6[nH]c7ccccc7c6CCN5C[C@@H]4CC[C@@H]3O)n2)c1 [Compound C18]", "reading": "< 0.1 µM"}
{"molecule": "Cc1noc([C@@H]2[C@H]3C[C@H]4c5[nH]c6ccccc6c5CCN4C[C@@H]3CC[C@@H]2O)n1 [Compound C26]", "reading": "0.1 to 0.3 µM"}
{"molecule": "O[C@H]1CC[C@H]2CN3CCc4c([nH]c5ccccc45)[C@@H]3C[C@@H]2[C@H]1c1nc(Cc2cccc(C(F)(F)F)c2)no1 [Compound C33]", "reading": "0.1 to 0.3 µM"}
{"molecule": "COc1cccc(Cc2noc([C@@H]3[C@H]4C[C@H]5c6[nH]c7ccccc7c6CCN5C[C@@H]4CC[C@@H]3O)n2)c1 [Compound C5]", "reading": "0.1 to 0.3 µM"}
{"molecule": "O[C@H]1CC[C@H]2CN3CCc4c([nH]c5ccccc45)[C@@H]3C[C@@H]2[C@H]1c1nc(Cc2ccc(Cl)c(Cl)c2)no1 [Compound C13]", "reading": "0.5 to 2 µM"}
{"molecule": "O[C@H]1CC[C@H]2CN3CCc4c([nH]c5ccccc45)[C@@H]3C[C@@H]2[C@H]1c1nc(CC2CC2)no1 [Compound C21]", "reading": "0.5 to 2 µM"}
{"molecule": "O[C@H]1CC[C@H]2CN3CCc4c([nH]c5ccccc45)[C@@H]3C[C@@H]2[C@H]1c1nc(Cc2ccccc2)no1 [Compound C1]", "reading": "< 0.1 µM"}
{"molecule": "O[C@H]1CC[C@H]2CN3CCc4c([nH]c5ccccc45)[C@@H]3C[C@@H]2[C@H]1c1nc(Cc2ccc(Br)cc2)no1 [Compound C16]", "reading": "0.5 to 2 µM"}
{"molecule": "O[C@H]1CC[C@H]2CN3CCc4c([nH]c5ccccc45)[C@@H]3C[C@@H]2[C@H]1c1nc(Cc2nc3ccccc3o2)no1 [Compound C31]", "reading": "0.3 to 0.5 µM"}
{"molecule": "NC(=O)c1ccc(Cc2noc([C@@H]3[C@H]4C[C@H]5c6[nH]c7ccccc7c6CCN5C[C@@H]4CC[C@@H]3O)n2)cc1 [Compound C27]", "reading": "< 0.1 µM"}

----------
system under test: α2A-AR (Homo sapiens, UniProt P08913)
Construct: expressed in transfected cells; stably expressing α2A-AR/Gα16
Sequence (P08913 1-465): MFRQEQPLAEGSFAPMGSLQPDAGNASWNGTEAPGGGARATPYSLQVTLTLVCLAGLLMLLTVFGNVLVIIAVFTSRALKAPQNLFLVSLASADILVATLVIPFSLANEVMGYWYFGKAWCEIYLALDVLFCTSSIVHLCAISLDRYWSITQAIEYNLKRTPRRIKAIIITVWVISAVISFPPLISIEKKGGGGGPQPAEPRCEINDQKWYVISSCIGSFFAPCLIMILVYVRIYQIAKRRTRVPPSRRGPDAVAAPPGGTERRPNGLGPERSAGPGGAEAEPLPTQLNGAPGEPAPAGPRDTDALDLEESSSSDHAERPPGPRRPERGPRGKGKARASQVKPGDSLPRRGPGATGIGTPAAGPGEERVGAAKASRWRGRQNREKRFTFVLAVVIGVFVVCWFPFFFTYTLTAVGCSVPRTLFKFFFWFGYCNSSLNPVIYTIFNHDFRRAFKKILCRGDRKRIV
assay info: α2A-AR antagonist assay (calcium flux, Fluo-4, FlexStation II)
Type: cell-based
recorded conditions: antagonistic activity against agonist UK14304 in cells stably expressing α2A-AR/Ga16

{"compound": "O[C@H]1CC[C@H]2CN3CCc4c([nH]c5ccccc45)[C@@H]3C[C@@H]2[C@H]1c1nc(C2CCCCC2)no1 [Compound C25]", "IC50": "0.3 to 0.5 µM"}
{"compound": "O[C@H]1CC[C@H]2CN3CCc4c([nH]c5ccccc45)[C@@H]3C[C@@H]2[C@H]1c1nc(Cc2ccccc2Cl)no1 [Compound C10]", "IC50": "0.5 to 2 µM"}
{"compound": "O[C@H]1CC[C@H]2CN3CCc4c([nH]c5ccccc45)[C@@H]3C[C@@H]2[C@H]1c1nc(CN2CCOCC2)no1 [Compound C20]", "IC50": "0.1 to 0.3 µM"}
{"compound": "CN(C)S(=O)(=O)c1ccc(Cc2noc([C@@H]3[C@H]4C[C@H]5c6[nH]c7ccccc7c6CCN5C[C@@H]4CC[C@@H]3O)n2)cc1 [Compound C28]", "IC50": "< 0.1 µM"}
{"compound": "O[C@H]1CC[C@H]2CN3CCc4c([nH]c5ccccc45)[C@@H]3C[C@@H]2[C@H]1c1nc(CCc2ccccc2)no1 [Compound C3]", "IC50": "0.1 to 0.3 µM"}
{"compound": "CC(c1ccccc1)c1noc([C@@H]2[C@H]3C[C@H]4c5[nH]c6ccccc6c5CCN4C[C@@H]3CC[C@@H]2O)n1 (stereo partly drawn) [Compound C2]", "IC50": "0.3 to 0.5 µM"}
